// provenance: patent US20230114728A1

System: P. aeruginosa (ΔmexAB-oprM)
PROTOCOL DETAILS: Broth microdilution MIC in CAMHB
Format: cell-based
ASSAY SETUP: Pseudomonas aeruginosa, read-out: Minimum Inhibitory Concentration, P. aeruginosa ΔmexAB-OprM
OBSERVATION TYPE: MIC

// below: answered compounds
NCCCN1CCN(C(=O)N[C@@H](C(=O)N[C@H]2Cc3cccc(C(=O)O)c3OB2O)c2cccc(NS(N)(=O)=O)c2)C(=O)C1=O | 2 to 4 µg/mL
CS(=O)(=O)N1CCN(C(=O)N[C@@H](C(=O)N[C@H]2Cc3ccc(F)c(C(=O)O)c3OB2O)c2cc(F)c(O)c(O)c2Cl)C1=O (single isomer, unassigned) | 8 to 16 µg/mL
CCN1CCN(C(=O)NC(C(=O)N[C@H]2Cc3cccc(C(=O)O)c3OB2O)c2cc(F)c(O)c(Cl)c2)C(=O)C1=O (stereo partly drawn) | 2 to 4 µg/mL
NCCN1CCN(C(=O)N[C@H](C(=O)N[C@H]2Cc3cccc(C(=O)O)c3OB2O)c2ccc(O)c([N+](=O)[O-])c2)C(=O)C1=O (single isomer, unassigned) | > 128 µg/mL
NCCN1CCN(C(=O)NC(C(=O)N[C@H]2Cc3cccc(C(=O)O)c3OB2O)c2cc(Cl)c(O)cc2F)C(=O)C1=O (stereo partly drawn) | 8 to 16 µg/mL
NCCN1CCN(C(=O)N[C@@H](C(=O)N[C@H]2Cc3ccc(F)c(C(=O)O)c3OB2O)c2c(F)cc(O)cc2F)C(=O)C1=O (single isomer, unassigned) | 8 to 16 µg/mL
NCCN1CCN(C(=O)NC(C(=O)N[C@H]2Cc3cccc(C(=O)O)c3OB2O)c2ccc(C(=O)O)c(Cl)c2)C(=O)C1=O (stereo partly drawn) | 8 to 16 µg/mL
CCN1CCN(C(=O)NC(C(=O)N[C@H]2Cc3ccc(SCC[N+]4(C)CCCC4)c(C(=O)O)c3OB2O)c2csc(N)n2)C(=O)C1=O.O=C([O-])C(F)(F)F (stereo partly drawn) | > 128 µg/mL

The compound CCN1CCN(C(=O)NC(C(=O)N[C@H]2Cc3cccc(C(=O)O)c3OB2O)c2cccc(O)c2)C(=O)C1=O (stereo partly drawn) showed MIC equal to 2 to 4 µg/mL

The compound CCN1CCN(C(=O)NC(C(=O)N[C@H]2Cc3cccc(C(=O)O)c3OB2O)c2cccc([N+](=O)[O-])c2)C(=O)C1=O (stereo partly drawn) showed MIC equal to 32 to 64 µg/mL

The compound NCCN1CCCN(C(=O)N[C@H](C(=O)N[C@H]2Cc3cccc(C(=O)O)c3OB2O)c2c(F)cc(O)cc2F)C1=O (single isomer, unassigned) showed MIC equal to > 128 µg/mL

The compound NCCN1CCN(C(=O)N[C@@H](C(=O)N[C@H]2Cc3cccc(C(=O)O)c3OB2O)c2cc(Cl)c(O)cc2Cl)C(=O)C1=O showed MIC equal to > 128 µg/mL
